# ASSAY EXPLANATION: In vivo biodistribution in mice
# Set-up: species or system normal CD-1 male mice
# CONDITIONS: iv, 60 min
MEASURED PROPERTY: bone to muscle ratio
The answer should be a number; do not append a unit.

A selection of reference data follows.
[[record]]
compound = "O=C([O-])CN1CCN(CC(=O)[O-])CCN(CC(=O)NCCNC(=O)CCc2ccc(O)c(CN(CCN(CC(=O)O)Cc3cc(CCC(=O)NC(P(=O)(O)O)P(=O)(O)O)ccc3O)CC(=O)O)c2)CCN(CC(=O)[O-])CC1.[177Lu+3] [[^177Lu]1h]"
measured_property = "bone to muscle ratio"
value_reported = 200

[[record]]
compound = "O=C(O)CN1CCN(CC(=O)O)CCN(CC(=O)NC(P(=O)(O)O)P(=O)(O)O)CCN(CC(=O)O)CC1.[68Ga] [[^68Ga]BPAMD, reference compound]"
measured_property = "bone to muscle ratio"
value_reported = 30

[[record]]
compound = "O=C([O-])CN(CCN(CC(=O)[O-])Cc1cc(CCC(=O)NC(P(=O)(O)O)P(=O)(O)O)ccc1[O-])Cc1cc(CCC(=O)NCC(=O)O)ccc1[O-].[68Ga+3] [[^68Ga]1c]"
measured_property = "bone to muscle ratio"
value_reported = 102


Here is another compound to look at.
Given the compound O=C([O-])CN(CCN(CC(=O)[O-])Cc1cc(CCC(=O)NC(P(=O)(O)O)P(=O)(O)O)ccc1[O-])Cc1cc(CCC(=O)NCCCNC(=O)CCc2ccc(O)c(CN(CCN(CC(=O)O)Cc3cc(CCC(=O)NC(P(=O)(O)O)P(=O)(O)O)ccc3O)CC(=O)O)c2)ccc1[O-].[68Ga+3] [[^68Ga]3] , what is its reported bone to muscle ratio?
16
